condition-parameters: male, human, in vivo, AUC0-6, 500 mg relebactam + 500 mg imipenem/cilastatin, panel H, day 1
metric-name: AUC(0-t) (µM·h)

smiles-str	metric-name	test-value
CC1(C)C[C@@H]1C(=O)N/C(=C\CCCCSC[C@H](N)C(=O)O)C(=O)O	AUC(0-t)	136

====

run-description: clinical
condition-parameters: male, human, in vivo, unbound CLR
metric-name: CL renal at 7 days (mL/min)

compound	quantity-unit	test-value
O=C(NC1CCNCC1)[C@@H]1CC[C@@H]2CN1C(=O)N2OS(=O)(=O)O [Relebactam]	mL/min	173

====

run-description: clinical
condition-parameters: male, human, in vivo, 125 mg, CLR

compound	CL renal (mL/min)
O=C(NC1CCNCC1)[C@@H]1CC[C@@H]2CN1C(=O)N2OS(=O)(=O)O [Relebactam]	159
